In this section we review reported melting point values for a set of compounds.

Here are 5 compounds together with their reported answers.
smiles-str: Cc1nc2c(N)nc3c(c2n1CCOCCS(C)(=O)=O)CCCC3
melting point: 173 to 175 °C

smiles-str: CCCc1nc2c(N)nc3ccccc3c2n1CCOCCCS(=O)(=O)c1ccccn1
melting point: 150 to 151 °C

smiles-str: CCCCCCc1nc2c(N)nc3ccccc3c2n1CCOCCS(C)(=O)=O
melting point: 158 to 160 °C

smiles-str: CCCCCCCCCCS(=O)(=O)CCCOCCn1c(CCC)nc2c(N)nc3ccccc3c21
melting point: 84 to 86 °C

smiles-str: CCCc1nc2c(N)nc3ccccc3c2n1CCOCCCSC
melting point: 99 to 101 °C

Q. Consider the compound shown here: Cc1nc2c(N)nc3ccccc3c2n1CCOCCS(C)(=O)=O What is its recorded melting point?
A. 214 to 217 °C

These data points were gathered from patent US7939526B2.
